- target.under.test: purified HLA-A*02:01 (Homo sapiens, UniProt P04439, D140Y/D185E/D98H/E176V/E277Q/G131W/G231S/I119V/I121R/I166T/I218V/L300P/L318F/N151K/N90K/P208A/P217A/Q86G/Q94H/R138H/R169H/T345S)
Ends that are not written are not given here.
measure.name: IC50

Exam item: For the sequence RKSAPSTGGV [H3.3WT, reference compound] , what IC50 is on record?
Marked response: > 38.7 µM
